experiment: Tolerability in CD1 mice: kidney function (Example 21); format: in vivo; details: plasma, 50 mg/kg s.c. twice per week for 6 weeks
I'd be grateful if you could share measured BUN for these entries.
The reply should contain only the number, in mg/dL.

// field: BUN; key: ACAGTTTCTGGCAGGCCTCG (antisense; all C 5-methyl, all phosphorothioate, sugars by position not given here; MOE gapmer, 5-10-5) [ISIS 412223, 5-10-5 MOE gapmer] ; value = 28

// field: BUN; key: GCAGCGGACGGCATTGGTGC (antisense; all C 5-methyl, all phosphorothioate, sugars by position not given here; MOE gapmer, 5-10-5) [ISIS 412225, 5-10-5 MOE gapmer] ; value = 23

// field: BUN; key: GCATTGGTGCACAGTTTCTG (antisense; all C 5-methyl, all phosphorothioate, sugars by position not given here; MOE gapmer, 5-10-5) [ISIS 412224, 5-10-5 MOE gapmer] ; value = 29

// field: BUN; key: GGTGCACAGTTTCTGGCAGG (all C 5-methyl, all phosphorothioate, sugars by position not given here; MOE gapmer) [ISIS 413481, 5-10-5 MOE gapmer] ; value = 23

// field: BUN; key: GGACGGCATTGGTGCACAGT (antisense; all C 5-methyl, all phosphorothioate, sugars by position not given here; MOE gapmer, 5-10-5) [ISIS 413482, 5-10-5 MOE gapmer] ; value = 27

###

tested on: human Factor XI mRNA; assay: Dose-dependent inhibition in HepG2 cells, lipofectin (Example 4); format: cell-based; conditions: 9.375 nM, 16 hours
In the oligonucleotide strings, read from the 5' end, every base follows the letter of its sugar. An asterisk marks phosphorothioate; unmarked linkages are phosphodiester. Other units and linkages are bracketed, terminal groups are in braces. A string of capitals states the bases alone. e = 2'-O-(2-methoxyethyl) (MOE); [5mC] = 5-methylcytosine; d = 2'-deoxy (DNA)
I'd be grateful if you could share measured percent inhibition of Factor XI mRNA, relative to untreated control cells for these entries.
The reply should contain only the number, in %.

# 416892 (antisense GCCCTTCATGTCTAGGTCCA; 3-14-3 chimeric gapmer, wing sugar chemistry not given here, further chemistry not given here) [compound 416892] with human Factor XI mRNA: percent inhibition of Factor XI mRNA, relative to untreated control cells is 16

# 413476 (antisense eT*eT*eG*eA*eG*dA*dT*dT*d[5mC]*dT*dT*dT*dG*dG*dG*e[5mC]*e[5mC]*eA*eT*eT) [compound 413476] with human Factor XI mRNA: percent inhibition of Factor XI mRNA, relative to untreated control cells is 24

# 416826 (antisense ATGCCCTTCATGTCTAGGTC; 5-10-5 gapmer, wing sugar chemistry not given here, further chemistry not given here) [compound 416826] with human Factor XI mRNA: percent inhibition of Factor XI mRNA, relative to untreated control cells is 8

# 416896 (antisense eT*eT*eA*dT*dG*d[5mC]*d[5mC]*d[5mC]*dT*dT*d[5mC]*dA*dT*dG*dT*d[5mC]*dT*eA*eG*eG) [compound 416896] with human Factor XI mRNA: percent inhibition of Factor XI mRNA, relative to untreated control cells is 22

# 416850 (antisense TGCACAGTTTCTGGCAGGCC; 5-10-5 gapmer, wing sugar chemistry not given here, further chemistry not given here) [compound 416850] with human Factor XI mRNA: percent inhibition of Factor XI mRNA, relative to untreated control cells is 4

# 416922 (antisense eG*e[5mC]*eA*d[5mC]*dA*dG*dT*dT*dT*d[5mC]*dT*dG*dG*d[5mC]*dA*dG*dG*e[5mC]*e[5mC]*eT) [compound 416922] with human Factor XI mRNA: percent inhibition of Factor XI mRNA, relative to untreated control cells is 14

# 416856 (antisense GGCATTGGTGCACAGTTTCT; 5-10-5 gapmer, wing sugar chemistry not given here, further chemistry not given here) [compound 416856] with human Factor XI mRNA: percent inhibition of Factor XI mRNA, relative to untreated control cells is 21

# 416984 (antisense e[5mC]*eA*dA*d[5mC]*d[5mC]*dG*dG*dG*dA*dT*dG*dA*dT*dG*dA*eG*eT*eG*e[5mC]*eA) [compound 416984] with human Factor XI mRNA: percent inhibition of Factor XI mRNA, relative to untreated control cells is 26

# 416973 (antisense eT*eT*dA*dT*dG*d[5mC]*d[5mC]*d[5mC]*dT*dT*d[5mC]*dA*dT*dG*dT*e[5mC]*eT*eA*eG*eG) [compound 416973] with human Factor XI mRNA: percent inhibition of Factor XI mRNA, relative to untreated control cells is 60

# 416838 (antisense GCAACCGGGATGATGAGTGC; 5-10-5 gapmer, wing sugar chemistry not given here, further chemistry not given here) [compound 416838] with human Factor XI mRNA: percent inhibition of Factor XI mRNA, relative to untreated control cells is 31

###

tested on: Factor XI protein; assay: Cynomolgus monkeys: plasma Factor XI protein ELISA (Example 30); type: in vivo; details: 25 mg/kg s.c.; plasma ELISA; Day −5
In the oligonucleotide strings, read from the 5' end, every base follows the letter of its sugar. An asterisk marks phosphorothioate; unmarked linkages are phosphodiester. Other units and linkages are bracketed, terminal groups are in braces. A string of capitals states the bases alone. e = 2'-O-(2-methoxyethyl) (MOE); [5mC] = 5-methylcytosine; d = 2'-deoxy (DNA)
I'd be grateful if you could share measured Inhibition of Factor XI protein relative to the PBS control for these entries.
The reply should contain only the number, in %.

// field: Inhibition of Factor XI protein relative to the PBS control; key: 445522 (antisense eG*e[5mC]*eA*e[5mC]*eA*dG*dT*dT*dT*d[5mC]*dT*dG*dG*e[5mC]*eA*eG*eG*e[5mC]) [compound 445522] ; value = 0

// field: Inhibition of Factor XI protein relative to the PBS control; key: 449707 (antisense e[5mC]*eA*e[5mC]*eA*dG*dT*dT*dT*d[5mC]*dT*dG*dG*e[5mC]*eA*eG*eG) [compound 449707] ; value = 0

// field: Inhibition of Factor XI protein relative to the PBS control; key: 445531 (antisense eG*eG*e[5mC]*eA*eT*dT*dG*dG*dT*dG*d[5mC]*dA*d[5mC]*eA*eG*eT*eT*eT) [compound 445531] ; value = 1

###

test system: human Factor XI mRNA; assay: Dose-dependent inhibition in HepG2 cells, electroporation (Example 4); type: cell-based; conditions: 20 μM, 16 hours
In the oligonucleotide strings, read from the 5' end, every base follows the letter of its sugar. An asterisk marks phosphorothioate; unmarked linkages are phosphodiester. Other units and linkages are bracketed, terminal groups are in braces. A string of capitals states the bases alone. e = 2'-O-(2-methoxyethyl) (MOE); [5mC] = 5-methylcytosine; d = 2'-deoxy (DNA)
I'd be grateful if you could share measured percent inhibition of Factor XI mRNA, relative to untreated control cells for these entries.

// field: percent inhibition of Factor XI mRNA, relative to untreated control cells; key: 416858 (antisense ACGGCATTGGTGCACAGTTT; 5-10-5 gapmer, wing sugar chemistry not given here, further chemistry not given here) [compound 416858] ; value = 86%

// field: percent inhibition of Factor XI mRNA, relative to untreated control cells; key: 416922 (antisense eG*e[5mC]*eA*d[5mC]*dA*dG*dT*dT*dT*d[5mC]*dT*dG*dG*d[5mC]*dA*dG*dG*e[5mC]*e[5mC]*eT) [compound 416922] ; value = 91%

// field: percent inhibition of Factor XI mRNA, relative to untreated control cells; key: 416925 (antisense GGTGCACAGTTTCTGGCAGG; 3-14-3 chimeric gapmer, wing sugar chemistry not given here, further chemistry not given here) [compound 416925] ; value = 80%

// field: percent inhibition of Factor XI mRNA, relative to untreated control cells; key: 416908 (antisense eG*e[5mC]*eA*dA*d[5mC]*d[5mC]*dG*dG*dG*dA*dT*dG*dA*dT*dG*dA*dG*eT*eG*e[5mC]) [compound 416908] ; value = 89%

// field: percent inhibition of Factor XI mRNA, relative to untreated control cells; key: 417002 (antisense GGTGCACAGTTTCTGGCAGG; 2-13-5 gapmer, wing sugar chemistry not given here, further chemistry not given here) [compound 417002] ; value = 91%

// field: percent inhibition of Factor XI mRNA, relative to untreated control cells; key: 413467 (antisense eG*eG*eT*e[5mC]*e[5mC]*dA*d[5mC]*dA*dT*dA*dA*dA*dT*dG*dT*e[5mC]*eT*eT*eT*eG) [compound 413467] ; value = 89%

// field: percent inhibition of Factor XI mRNA, relative to untreated control cells; key: 416931 (antisense eG*eG*e[5mC]*dA*dT*dT*dG*dG*dT*dG*d[5mC]*dA*d[5mC]*dA*dG*dT*dT*eT*e[5mC]*eT) [compound 416931] ; value = 82%

// field: percent inhibition of Factor XI mRNA, relative to untreated control cells; key: 416999 (antisense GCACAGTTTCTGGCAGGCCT; 2-13-5 gapmer, wing sugar chemistry not given here, further chemistry not given here) [compound 416999] ; value = 88%

// field: percent inhibition of Factor XI mRNA, relative to untreated control cells; key: 416842 (antisense eT*eG*eA*eG*eA*dT*dT*d[5mC]*dT*dT*dT*dG*dG*dG*d[5mC]*e[5mC]*eA*eT*eT*e[5mC]) [compound 416842] ; value = 92%

// field: percent inhibition of Factor XI mRNA, relative to untreated control cells; key: 416825 (antisense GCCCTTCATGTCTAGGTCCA; 5-10-5 gapmer, wing sugar chemistry not given here, further chemistry not given here) [compound 416825] ; value = 98%

Source listed as patent US20120083522A1.
